B1: HDV Ribozyme (parent)
chain: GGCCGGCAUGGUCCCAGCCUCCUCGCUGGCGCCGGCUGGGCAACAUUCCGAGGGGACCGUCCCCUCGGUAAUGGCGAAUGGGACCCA

variants of: B1; test: self-cleavage, relative activity (ratio to wild type); higher = more cleavage; co-transcriptional
Each entry below lists one item and its recorded self-cleavage value.

Take a look at these entries with their results.
G25A C33U = 0.0911
C18G A42U = 0.138
U23C U46A = 0.538
C24A G74U = 0.16
U20C C75U = 0

[ask] If you can, please state the reported self-cleavage value of U9A G73C .
[reply] 0.227

[ask] If you can, please state the reported self-cleavage value of U37G C44G .
[reply] 0.0692

[ask] If you can, please state the reported self-cleavage value of C49A G52U .
[reply] 0.369
